Target: Cholinesterase (Equus caballus, UniProt P81908)
Sequence (P81908 whole entry): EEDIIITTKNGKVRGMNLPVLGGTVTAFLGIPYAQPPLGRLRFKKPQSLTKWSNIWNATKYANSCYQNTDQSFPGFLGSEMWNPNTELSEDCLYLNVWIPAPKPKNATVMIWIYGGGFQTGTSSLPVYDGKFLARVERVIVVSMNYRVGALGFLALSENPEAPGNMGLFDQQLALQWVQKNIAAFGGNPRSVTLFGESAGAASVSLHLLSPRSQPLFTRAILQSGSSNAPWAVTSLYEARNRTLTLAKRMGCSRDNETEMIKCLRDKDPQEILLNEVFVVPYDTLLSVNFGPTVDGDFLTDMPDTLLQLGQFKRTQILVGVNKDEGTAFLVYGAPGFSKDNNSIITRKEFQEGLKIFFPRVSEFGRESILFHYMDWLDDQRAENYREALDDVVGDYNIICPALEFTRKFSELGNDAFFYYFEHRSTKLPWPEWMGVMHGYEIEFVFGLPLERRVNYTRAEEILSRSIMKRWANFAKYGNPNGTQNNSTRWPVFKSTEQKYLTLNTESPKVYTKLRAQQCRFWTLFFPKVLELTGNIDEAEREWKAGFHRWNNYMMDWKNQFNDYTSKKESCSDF
Quick rule for you: IC50 under 90 nM gets T, anything else gets F.

State whether 90 nM exceeds IC50 recorded for COc1ccc(/C=C2\COc3cc(OCCCCCCCCNc4c5c(nc6ccccc46)CCCC5)ccc3C2=O)cc1 .
F

Try this compound too: COc1ccccc1/C=C1\COc2cc(OCCCCCCNc3c4c(nc5ccccc35)CCCC4)ccc2C1=O
T

COc1ccc(CC2COc3cc(OCCCCCCNc4c5c(nc6ccccc46)CCCC5)ccc3C2=O)cc1 (stereo unspecified) , same question.
T

CN(C)c1ccc(/C=C2\COc3cc(OCCCCCCNc4c5c(nc6ccccc46)CCCC5)ccc3C2=O)cc1 ?
T

Entry CCN(CC)c1ccc(/C=C2\COc3cc(OCCCCCCNc4c5c(nc6ccccc46)CCCC5)ccc3C2=O)cc1 please
F

And the next one, O=C1/C(=C/c2ccc(Cl)cc2)COc2cc(OCCCCCCNc3c4c(nc5ccccc35)CCCC4)ccc21 ?
T
